A collection of molecules and their measured photoluminescence quantum yield
- assay_info: photoluminescence quantum yield (fraction); solvent given as SMILES
- experimental_conditions: in CN(C)C=O
Form: value (number only, do not type unit).

Here's what some known entries look like.
| molecule | photoluminescence quantum yield |
| --- | --- |
| CCn1c2cc(OC)ccc2c2c3nsnc3c3c4ccc(OC)cc4n(CC)c3c21 | 0.49 |
| O=C1NC(=O)c2ccc3c4ccc5c6c(ccc(c7ccc1c2c73)c64)C(=O)N(c1ccc(Cl)cc1)C5=O | 0.98 |
| Cc1cc(-c2ccc(-c3nc4ccccc4[nH]3)cc2)ccc1-c1ccc(-c2nc3ccccc3[nH]2)cc1 | 0.82 |
| Cc1ccc(OCc2cc(=O)oc3c2ccc2ccccc23)cc1 | 0.0576 |
| CCOC(=O)CN(CC(=O)OCC)c1ccc(-c2cc(-c3ccncc3)nc(-c3ccncc3)c2)cc1 | 0.2 |
| COC(=O)C(Cc1ccc2oc(-c3ccc(N(C)C)cc3)nc2c1)NC(=O)OC(C)(C)C (configuration not stated) | 0.92 |
| CCC1=C(C)C2=C(c3c4ccccc4c(-c4ccccc4)c4ccccc34)c3c(C)c(CC)c(C)n3[B-](F)(F)[N+]2=C1C | 0.648 |
| CCn1c2ccccc2c2cc(-c3cc(-c4ccc5c(c4)c4ccccc4n5CC)nc(N4CCCCC4)n3)ccc21 | 0.17 |

Exercise: Given `CC(C)(C)c1ccc2c(c1)[nH]c1c3[nH]c4cc(C(C)(C)C)ccc4c3c3nsnc3c21` , state its recorded photoluminescence quantum yield.
Solution: 0.09

Exercise: Next: `COc1ccc(-c2csc(/C(C#N)=C/c3ccc(C#N)cc3)n2)cc1`
Solution: 0.002

Exercise: Next: `CCn1c2ccccc2c2cc(C#Cc3cc(C#Cc4ccc5c(c4)c4ccccc4n5CC)nc(C#N)n3)ccc21`
Solution: 0.21

Exercise: Next: `CCN(CC)c1ccc(-c2nc(Oc3ccc(-c4nc5ccccc5s4)cc3)nc(Oc3ccc(-c4nc5ccccc5s4)cc3)n2)cc1`
Solution: 0.155

Exercise: Next: `CN(C)c1ccc(/C=C2\CC/C(=C\c3ccc(C#N)cc3)C2=O)cc1`
Solution: 0.0066

Exercise: Next: `O=S(=O)([O-])c1ccccc1/C=C/c1ccc(-c2nnc(-c3ccc(/C=C/c4ccccc4S(=O)(=O)[O-])cc3)o2)cc1`
Solution: 0.75

Exercise: Next: `CCCCOc1ccc(-c2oc3cc4n(c3c2-c2ccc(OCCCC)cc2)[B-](F)(F)[N+]2=Cc3cc5oc(-c6ccc(OCCCC)cc6)c(-c6ccc(OCCCC)cc6)c5n3[B-](F)(F)[N+]2=C4)cc1`
Solution: 0.32

Exercise: Next: `COc1cc(/C=C/c2ccccn2)c(OC)cc1C=O`
Solution: 0.21

Exercise: Next: `COc1cc2c(cc1/C=C/C1=CC(=C(C#N)C#N)CC(C)(C)C1)c1ccccc1n2C`
Solution: 0.038

Exercise: Next: `CCN(CC)c1ccc2c(c1)oc(=O)c1cnc3c(cnn3-c3ccccc3)c12`
Solution: 0.296

Exercise: Next: `N#C/C(=C\c1ccncc1)c1nc(-c2ccccc2)cs1`
Solution: 0.406

Exercise: Next: `CC[N+]1(CC)CN2C(C)=CC(C)=C(C(=O)[O-])C2=N1`
Solution: 0.105

Exercise: Next: `O=C1c2ccc3c4c(Oc5ccccc5)cc5c6c(ccc(c7c(Oc8ccccc8)cc(c2c37)C(=O)N1c1ccc(O)cc1)c64)C(=O)N(c1ccc(O)cc1)C5=O`
Solution: 0.01

Exercise: Next: `O=C(c1ccc(N(c2ccccc2)c2ccccc2)cc1)[C@H]1[C@H](c2cccs2)C[C@](O)(c2ccccn2)C[C@]1(O)c1ccccn1`
Solution: 0.02

Exercise: Next: `CC1=[N+]2C(=C(c3c4ccccc4c(-c4ccccc4)c4ccccc34)c3ccc(C)n3[B-]2(F)F)C=C1`
Solution: 0.004

Exercise: Next: `CC[N+]1(CC)CN2C(=N1)C(C(=O)O)=Cc1ccccc12`
Solution: 0.006

Exercise: Next: `COc1cc(/C=C/c2ccncc2)c(OC)cc1C=O`
Solution: 0.15

Exercise: Next: `CSc1sc(C(C)=O)c2nn[nH]c(=O)c12`
Solution: 0.0047

Exercise: Next: `CN(C)CCN(Cc1c2ccccc2cc2ccccc12)c1ccc([N+](=O)[O-])cc1`
Solution: 0.0411
